Test system: Rhizoctonia solani
Experiment: Example F rice sheath blight
Type: in vivo
Conditions: Rhizoctonia solani, 144 h, 20 PPM; read-out: disease control rating, Ex. F
assay_readout: pest or weed control at 20 ppm

Record request: pest or weed control at 20 ppm value, item C=C(c1ccc(F)cc1)C(O)(Cn1cncn1)c1ccc(F)cc1 (single isomer, unassigned) [Example 1277a] 0%

Query (compound): C=C(c1cccc(Cl)c1)C(O)(Cn1cncn1)c1ccccc1F (centres unmarked) ; field requested: pest or weed control at 20 ppm 0%

May I ask what pest or weed control at 20 ppm has been recorded for C=C(c1ccc(SC)cc1)C(O)(Cn1cncn1)c1ccc(F)cc1F (centres unmarked) ? 0%

Find the recorded pest or weed control at 20 ppm belonging to C=C(c1ccc(S(C)(=O)=O)cc1)C(O)(Cn1cncn1)c1ccc(F)cc1 (centres unmarked) and report it. 0%

Requested field: pest or weed control at 20 ppm. Item: `C=C(c1ccccc1)[C@](O)(Cn1cncn1)c1ccc(F)cc1` 52%
